// IC50 lookup, one value per entry
Test system: S. cerevisiae tim10-1 mutant, luminescence counterscreen
Test: tim10-1 yeast luminescent signal inhibition – luminescence, S. cerevisiae, uHTS hits, counter-screen for tim23-1 inhibitor project, dose response (AID 504657)
Active and inactive are the calls of the source. The rule behind the calls is not given here.

Solved entries:
Input: Would you kindly share the measured IC50 for "Cc1ccc2nc(N3C(=O)CNC3=S)sc2c1" ?
Output: > 100 µM (inactive)

Input: Would you kindly share the measured IC50 for "CC(C)(C)c1csc(NC(=O)c2ccc(Cl)s2)n1" ?
Output: > 100 µM (inactive)

Next:
Input: Would you kindly share the measured IC50 for "Oc1ccc(Oc2ccc(Oc3ccc(O)cc3)cc2)cc1" ?
Output: > 100 µM (inactive)

Input: Would you kindly share the measured IC50 for "Cc1cc(C)nc(SCC(=O)c2cc3ccccc3oc2=O)n1" ?
Output: > 100 µM (inactive)
